Assay: Clearance in Wistar Han rat at 4 mg/kg, iv
Format: ADME, organism-based
Set-up: dose 4 mg/kg, route intravenous
Conditions: in vivo
Readout: clearance (mL/min/kg)

>  <Smiles str>
COc1ccc2ncc(=O)n(CCN3CCC(NCc4cc5c(cn4)OCCO5)CC3)c2c1

>  <Readout>
clearance

>  <Endpoint result>
338

$$$$

---

Assay: Volume of distribution in Beagle dog at 3 mg/kg, iv
Format: ADME, organism-based, Canis lupus familiaris
Design: dose 3 mg/kg, route intravenous
Conditions: in vivo
Vd listing for selected compounds.

>  <Smiles str>
N#Cc1ccc2c(c1)N(CCN1CCC(NCc3ccc4c(n3)NC(=O)CO4)CC1)C(=O)CO2

>  <Vd, L/kg>
61

$$$$
>  <Smiles str>
COc1ccc2ncc(=O)n(CCN3CCC(NCc4cc5c(cn4)OCCO5)CC3)c2c1

>  <Vd, L/kg>
11

$$$$
